src = ChEMBL document CHEMBL4002623

MIC values for the compounds below.
tested on: Enterococcus faecalis; experiment: Antibacterial activity against vancomycin-resistant Enterococcus faecalis ATCC 51299 by agar dilution method; format: functional
Report only the number, with the unit µg/mL understood.

The cases that follow already have their MIC on record.
N=C(c1ccc2cc(-c3ccc(Oc4ccc(-c5cc6ccc(C(=N)N7CCC7)cc6[nH]5)cc4)cc3)[nH]c2c1)N1CCC1 = 2
CC(C)NC(=N)c1ccc2cc(-c3ccc(Oc4ccc(-c5cc6ccc(C(=N)NC(C)C)cc6[nH]5)cc4)cc3)[nH]c2c1 = 2

Quick note, MIC for CCNC(=N)c1ccc2cc(-c3ccc(Oc4ccc(-c5cc6ccc(C(=N)NCC)cc6[nH]5)cc4)cc3)[nH]c2c1 landed at 2
